Tested on: OVCAR-5 ovarian
assay details: NCI tumour cell line growth inhibition, 48 h
property name: TGI

Solved entries:
Give OVCAR-5 ovarian TGI for C=C1C(=O)O[C@H]2[C@H]1CC/C(COC(=O)C(=O)c1c[nH]c3ccc(Cl)cc13)=C\CC[C@@]1(C)O[C@@H]21
5.17 µM

Follow-up item: CN(C)CCCN1c2ccc(O)cc2Sc2ccc(Cl)cc21
30.8 µM

Moving on to CSC(=NC#N)S/C=C/C(=O)c1cccc2ccccc12
82.9 µM

***
Recall the recorded TGI for CCOC(=O)C(O)Cc1cnc2ccccc2n1 (stereo not given) with OVCAR-5 ovarian and state it.
> 100 µM

Please give the result for Cc1cccc2cc3cccc(C(=O)NCCN(C)C)c3nc12 too.
1.63 µM
